Taken from PubChem BioAssay (NCI).

Tested on: NCI/ADR-RES ovarian
Assay: NCI-60 one-dose screen, 48 h (100 = growth as untreated, 0 = no growth, -100 = all killed)
Details: 10 µM unless noted
About 83,000 compounds went through this panel and 20% of them were active in at least one assay; those are over-represented in the sample as a whole.

- COMPOUND: "N#Cc1c(-c2ccc(C(F)(F)F)cc2)c(F)c(NCCC2CCC(O)C2)n2c1nc1ccccc12 (stereo not drawn)"
  UOM: "%"
  growth: 37.9
- COMPOUND: "COc1ccc(OC)c(NC2=C(SCCc3ccccc3)C(=O)c3ccccc3C2=O)c1"
  UOM: "%"
  growth: 76.5
- COMPOUND: "COC(=O)C1=C(C(=O)OC)C23C=C(C)C1C2=C(C)C1(CC1)[C@@](C)(O)C3=O (stereo partly drawn)"
  UOM: "%"
  growth: -3.49
- COMPOUND: "CNC(=O)c1cnc(C)nc1-c1cc(C(C)(C)C)c(O)c(C(C)(C)C)c1"
  UOM: "%"
  growth: 110
- COMPOUND: "Nc1ncnc2c1c(-c1cccc(OCc3ccccc3)c1)cn2C1CC(CN2CCC2)C1 (stereo not drawn)"
  UOM: "%"
  growth: 35.4
- COMPOUND: "Cc1cc(N(CCNc2ccnc3cc(Cl)ccc23)Cc2cccs2)nc(Cl)n1"
  UOM: "%"
  growth: -2.82
- COMPOUND: "Cc1cc(O)c2c(c1)C1OC(=O)CCCCCN1C1=C2C(=O)c2cccc(OC3CC(O)C(O)C(C)O3)c2C1=O (stereo not drawn)"
  UOM: "%"
  growth: 91
- COMPOUND: "Nc1c(C(=O)c2ccccc2)sc2nc(-c3cccs3)ccc12"
  UOM: "%"
  growth: 3.97
- COMPOUND: "Cc1c(CN2CCN(C(=O)[C@H](C)O)CC2)sc2c(N3CCOCC3)nc(-c3cnc(N)nc3)nc12"
  UOM: "%"
  growth: 7
- COMPOUND: "O=C(Nc1cnn2ccc(N3CCC[C@@H]3c3cc(F)ccc3F)nc12)N1CC[C@H](O)C1"
  UOM: "%"
  growth: 97
- COMPOUND: "O=C(Nc1ccc(Nc2ncnc3sc4c(c23)CCOC4)cc1)Nc1ccc(Cl)c(C(F)(F)F)c1"
  UOM: "%"
  growth: 94.7
- COMPOUND: "CCc1ccc(/C=C/c2ccc(O)c3ncccc23)[n+](C)c1"
  UOM: "%"
  growth: 73.4
- COMPOUND: "Cc1cc(Nc2nc(N[C@@H](C)c3ncc(F)cn3)ncc2Cl)n[nH]1"
  UOM: "%"
  growth: 87.5
- COMPOUND: "COC(=O)[C@H](C)NC(=O)[C@@H](OC)[C@@H]1Cc2cc3cc(OC4CC(OC5CC(O)C(O)C(C)O5)C(O)C(C)O4)c(C)c(O)c3c(O)c2C(=O)[C@H]1OC1CC(OC2CC(OC3CC(C)(O)C(O)C(C)O3)C(O)C(C)O2)C(O)C(C)O1 (stereo partly drawn)"
  UOM: "%"
  growth: 75.4
- COMPOUND: "CN1CCN(CC(=O)Nc2ccc(-c3nc4ccccc4s3)cc2)CC1"
  UOM: "%"
  growth: 85.6
- COMPOUND: "CN1CCN(c2ccc(OC(F)(F)F)c(Nc3ncc4c(n3)-c3c(c(C(N)=O)nn3CCO)CC4)c2)CC1"
  UOM: "%"
  growth: 12.9
- COMPOUND: "COc1cc(-c2nc(C(=O)NCC(=O)O)nn2-c2ccc(Cl)cc2)cc(OC)c1OC"
  UOM: "%"
  growth: 105
- COMPOUND: "COc1ccc(C(=O)c2cc(OC)c(OC)c(OC)c2)cc1/C=C/C(=O)c1ccc(F)cc1"
  UOM: "%"
  growth: 31.1
